Tested on: cultured human aortic smooth muscle cells (SMC)
Assay: SMC collagen gel contraction stimulated by angiotensin II
Type: cell-based
Details: Apr. 17, 2003; at 30
Description: Plant-derived bioflavonoids have been recognized to support arterial wall structural integrity and interfere with a variety of pro-atherosclerotic stimuli. […] Confluent culture of SMC and suspended from culture flask by trypsinization and washed with phosphate-buffered saline (PBS) from serum-containing medium. […] Gel flat surface area is measured with digital image analyzing software. […]
result type: rank of effectiveness on ATII-induced gel contraction (catechins)

Oc1cc(O)c2c(c1)O[C@H](c1ccc(O)c(O)c1)[C@H](O)C2 [EC]    EC=C
Oc1cc(O)c2c(c1)OC(c1ccc(O)c(O)c1)C(O)C2 (stereo not shown) [C]    EC=C
